assay: Compound was tested for its effective dose against Escherichia coli JUHL in mice upon peroral administration; format: functional; details: Mus musculus, po
PARAMETER: ED50 (mg/kg/day)
Give bare numbers, in mg/kg/day.

The examples below pair each entry with its known result.
Cc1c(N2CCC(N)(CF)C2)c(F)cn2c(=O)c(C(=O)O)cc(C3CC3)c12 (centres undefined) | 15.1
O=C(O)c1cn(C2CC2)c2cc(N3CCNCC3)c(F)cc2c1=O [CIPROFLOXACIN] | 1

// for each molecule in input: emit ED50
1. Cc1c(N2C[C@H](CF)[C@@H](N)C2)c(F)cn2c(=O)c(C(=O)O)cc(C3CC3)c12
2. Cc1c(N2CC[C@H](N)C2)c(F)cn2c(=O)c(C(=O)O)cc(C3CC3)c12 [ABT-719]
3. Cc1c(N2C[C@@H](N)[C@@H](F)C2)c(F)cn2c(=O)c(C(=O)O)cc(C3CC3)c12

# output
3
0.6
7.4
